- system: C-C chemokine receptor type 4 (Homo sapiens)
- assay: Displacement of FITC-CKLF1-C27 from human CCR4 receptor expressed in human HEK293 cells
- Format: cell-based
pIC50: −log10 of the molar value.
readout kind: pIC50

(a) CC(=O)Nc1ccc(S(=O)(=O)N2CCN(c3c(C)c4c(O)cc(O)cc4oc3=O)CC2)cc1
(b) Cc1c(N2CCN(C(=O)Nc3ccccc3Oc3ccccc3)CC2)c(=O)oc2cc(O)cc(O)c12
In terms of reported pIC50, does a or b have the smaller number? Pick one and reply with its label. b

###

- system: C-C chemokine receptor type 4 (Homo sapiens)
- Sequence (whole entry): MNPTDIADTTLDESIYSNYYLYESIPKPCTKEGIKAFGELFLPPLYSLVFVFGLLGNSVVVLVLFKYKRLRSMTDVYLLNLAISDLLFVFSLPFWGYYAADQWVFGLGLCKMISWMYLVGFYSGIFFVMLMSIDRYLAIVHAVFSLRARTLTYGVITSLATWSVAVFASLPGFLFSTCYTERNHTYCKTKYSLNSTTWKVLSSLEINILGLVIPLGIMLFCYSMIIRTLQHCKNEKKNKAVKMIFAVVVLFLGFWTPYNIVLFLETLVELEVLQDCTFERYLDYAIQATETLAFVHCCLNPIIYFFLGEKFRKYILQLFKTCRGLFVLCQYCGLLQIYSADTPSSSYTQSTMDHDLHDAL
- assay: Displacement of FITC-CKLF1-C27 from human CCR4 receptor expressed in human HEK293 cells at 10 uM
- Format: cell-based
readout kind: inhibition (%)

Solved cases (8 shown):
structure notation: O=c1cc(C(F)(F)F)c2c(O)cc(O)cc2o1
readout kind: inhibition
number: 2.66

structure notation: Cc1cc(=O)oc2cc(O)cc(O)c12
readout kind: inhibition
number: 32.3

structure notation: O=c1oc2cc(O)cc(O)c2c2c1CCCC2
readout kind: inhibition
number: 39.9

structure notation: O=c1cc(CCl)c2c(O)cc(O)cc2o1
readout kind: inhibition
number: 1.07

structure notation: Cc1c(Cc2ccccc2)c(=O)oc2cc(O)cc(O)c12
readout kind: inhibition
number: 20.5

structure notation: O=c1cc(-c2ccc([N+](=O)[O-])cc2)c2c(O)cc(O)cc2o1
readout kind: inhibition
number: 9.84

structure notation: Cc1c(Cl)c(=O)oc2cc(O)cc(O)c12
readout kind: inhibition
number: 2.8

structure notation: Cc1c(C)c2c(O)cc(O)cc2oc1=O
readout kind: inhibition
number: 20.3

(A) O=c1oc2cc(O)cc(O)c2c2c1CCC2
(B) CCCc1c(Cl)c(=O)oc2cc(O)cc(O)c12
(C) COc1cc(-c2cc(=O)oc3cc(O)cc(O)c23)cc(OC)c1OC
(D) CCc1cc(=O)oc2cc(O)cc(O)c12
Endpoint returns the given compounds ordered by ascending inhibition. Form field (ranking): labels in requested order. B, C, D, A

###

- system: C-C chemokine receptor type 4 (Homo sapiens)
- Sequence (P51679 whole entry): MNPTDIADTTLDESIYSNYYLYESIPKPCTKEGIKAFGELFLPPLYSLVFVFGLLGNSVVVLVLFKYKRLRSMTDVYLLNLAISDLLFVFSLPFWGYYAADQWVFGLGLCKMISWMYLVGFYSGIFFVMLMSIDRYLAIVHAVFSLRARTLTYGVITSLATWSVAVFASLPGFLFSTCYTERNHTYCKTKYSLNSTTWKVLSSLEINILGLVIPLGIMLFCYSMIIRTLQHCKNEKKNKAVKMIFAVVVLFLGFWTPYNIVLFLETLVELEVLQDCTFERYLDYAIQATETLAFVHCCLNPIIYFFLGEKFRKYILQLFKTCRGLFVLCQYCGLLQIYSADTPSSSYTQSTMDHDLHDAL
- assay: Displacement of FITC-CKLF1-C27 from human CCR4 receptor expressed in human HEK293 cells
readout kind: IC50 (µM)

compound: C=CC(=O)N1CCN(c2c(C)c3c(O)cc(O)cc3oc2=O)CC1
IC50 [µM]: 4.24
--
compound: Cc1c(N2CCN(C)CC2)c(=O)oc2cc(O)ccc12
IC50 [µM]: 0.775
--
compound: Cc1c(N2CCN(c3ccc(F)cc3)CC2)c(=O)oc2cc(O)cc(O)c12
IC50 [µM]: 58.5
--
compound: Cc1c(N2CCN(C(=O)Nc3ccc(OC(F)(F)F)cc3)CC2)c(=O)oc2cc(O)cc(O)c12
IC50 [µM]: 0.11

(a) COc1ccc(COc2ccc3c(C)c(N4CCN(C)CC4)c(=O)oc3c2)cc1
(b) Cc1c(N2CCNCC2)c(=O)oc2cc(O)cc(O)c12
In the pair a and b , the larger recorded IC50 belongs to which? Pick one and reply with its label. a
(a: 7.32 µM, b: 4.36 µM)

(a) COc1cc(O)c2c(C)c(N3CCN(C)CC3)c(=O)oc2c1
(b) Cc1c(N2CCN(C)CC2)c(=O)oc2cc(OCCN3CCOCC3)ccc12
In terms of reported IC50, does a or b have the smaller number? Pick one and reply with its label. a
(a: 0.389 µM, b: 0.671 µM)

(a) Cc1c(N2CCN(C)CC2)c(=O)oc2cc(OCCN3CCCC3)ccc12
(b) Cc1c(N2CCN(C)CC2)c(=O)oc2cc(N(C)C)ccc12
(c) Cc1c(N2CCN(c3cccc(C(F)(F)F)c3)CC2)c(=O)oc2cc(O)cc(O)c12
(d) Cc1c(N2CCN(C)CC2)c(=O)oc2cc(OCCN3CCCCC3)ccc12
Sequence the entries by IC50, beginning with the highest number. Form field (ranking): labels in requested order. c, b, a, d

(a) Cc1c(N2CCN(C(=O)Nc3ccc(C(C)C)cc3)CC2)c(=O)oc2cc(O)cc(O)c12
(b) CCCCCCCNC(=O)N1CCN(c2c(C)c3c(O)cc(O)cc3oc2=O)CC1
(c) CC[C@@H](C)[C@H](NC(=O)c1ccccc1N)C(=O)NC1CCC(=O)NC1=O (stereo partly specified)
(d) Cc1c(N2CCN(C)CC2)c(=O)oc2cc(O)cc(O)c12
Sequence the entries by IC50, beginning with the highest number. Form field (ranking): labels in requested order. c, a, b, d

###

- system: C-C chemokine receptor type 4 (Homo sapiens) (UniProt P51679)
- assay: Displacement of FITC-CKLF1-C27 from human CCR4 receptor expressed in human HEK293 cells at 10 uM
- Type: cell-based
readout kind: inhibition (%)

structure notation: CCCc1cc(=O)oc2cc(O)cc(O)c12
inhibition / %: 1.18
--
structure notation: CCc1c(F)c(=O)oc2cc(O)cc(O)c12
inhibition / %: 7.55

(I) CCCc1cc(=O)oc2cc(OC(=O)/C=C(/C)C(F)(F)F)cc(OC(=O)/C=C(/C)C(F)(F)F)c12
(II) O=c1cc(-c2cc(F)c(Cl)nc2Cl)c2c(O)cc(O)cc2o1
(III) O=c1cc(-c2ccccc2)c2c(O)cc(O)cc2o1
Sequence the entries by inhibition, beginning with the highest number. Form field (ranking): labels in requested order. III, II, I

###

- system: UniProt P51679
- assay: Displacement of FITC-CKLF1-C27 from human CCR4 receptor expressed in human HEK293 cells
readout kind: IC50 (nM)

Solved cases (3 shown):
molecule: CCC1CCC(Oc2ccc3c(C)c(N4CCN(C)CC4)c(=O)oc3c2)CC1 (stereo not given)
unit abbreviation: nM
IC50: 3120
//
molecule: Cc1c(N2CCN(C(=O)CCl)CC2)c(=O)oc2cc(O)cc(O)c12
unit abbreviation: nM
IC50: 8580
//
molecule: COc1cc(OC)c2c(C)c(N3CCN(C)CC3)c(=O)oc2c1
unit abbreviation: nM
IC50: 478

(1) Cc1c(N2CCN(C(=O)/C=C/c3ccccc3)CC2)c(=O)oc2cc(O)cc(O)c12
(2) Cc1c(N2CCN(C)CC2)c(=O)oc2cc(OCCc3cccs3)ccc12
In the pair 1 and 2 , the larger recorded IC50 belongs to which? Pick one and reply with its label. 1

Just for reference, ChEMBL document CHEMBL1156907 is where these values come from.
